molecular target: Human cancer-specific MUC1 peptide (PTL 1) (human); test: ELISA, MUC1 peptide immobilized on 384-well plate, HRP anti-human Igκ detection, luminescence
Parameter pEC50: see the listing below.
A value of pEC50 is the negative decimal logarithm of a concentration given in moles per litre.

{"binder": "Sample No. 1: [DFO-C(═O)-(1,3-phenylene)-C(═O)-Gly-Lys-Z2]p-Fab (Fab, V domains shown, may carry the labeling moiety; sites not stated; [DFO-C(═O)-(1,3-phenylene)-C(═O)-Gly-Lys-Z2] labeling moiety bound via 2-iminothiolane to amino group(s) of the Fab, one or two per Fab by MS, sites and chain not stated; N-terminal Gln into pyroglutamic acid in a great majority (Example 2)) VH: QVQLVQSGAEVKKPGASVKVSCKASGYTFTNYGLSWVRQAPGQGLEWMGENHPGSGIIYHNEKFRGRVTLTADRSTSTAYMELSSLRSEDTAVYYCARSSGTRGFDYWGQGTLVTVSS VL: DVVMTQTPLSLSVTPGQPASISCRSSQSIVHSNGNTYLEWYLQKPGQSPQLLIYRVSNRFSGVPDRFSGSGSGTDFTLKISRVEAEDVGVYYCFQGSHGPWTFGQGTKLEIKR", "pEC50": 9.54}

What the record says about Sample No. 7: [DOTA-Met-Ile-NH-(CH2)2-Z1]p-Fab (Fab, V domains shown, may carry the labeling moiety; sites not stated; [DOTA-Met-Ile-NH-(CH2)2-Z1] labeling moiety bound via 2-iminothiolane to amino group(s) of the Fab, one to three per Fab by MS, sites and chain not stated; N-terminal Gln into pyroglutamic acid in a great majority (Example 2)) VH: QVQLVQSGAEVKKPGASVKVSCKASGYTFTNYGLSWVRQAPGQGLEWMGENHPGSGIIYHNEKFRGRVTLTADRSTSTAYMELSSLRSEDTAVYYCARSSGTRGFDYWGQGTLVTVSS VL: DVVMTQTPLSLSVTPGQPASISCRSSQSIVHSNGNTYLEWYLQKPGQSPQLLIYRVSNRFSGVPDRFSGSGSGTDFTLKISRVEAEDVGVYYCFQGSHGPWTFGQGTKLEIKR : pEC50 is 9.51

Per the record, Sample No. 5: [DOTA-Gly-Lys-Z2]p-Fab (Fab, V domains shown, may carry the labeling moiety; sites not stated; [DOTA-Gly-Lys-Z2] labeling moiety bound via 2-iminothiolane to amino group(s) of the Fab, one or two per Fab by MS, sites and chain not stated; N-terminal Gln into pyroglutamic acid in a great majority (Example 2)) VH: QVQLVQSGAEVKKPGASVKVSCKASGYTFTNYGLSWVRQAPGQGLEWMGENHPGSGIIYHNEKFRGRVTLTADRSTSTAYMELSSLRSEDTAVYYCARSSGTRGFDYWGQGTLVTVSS VL: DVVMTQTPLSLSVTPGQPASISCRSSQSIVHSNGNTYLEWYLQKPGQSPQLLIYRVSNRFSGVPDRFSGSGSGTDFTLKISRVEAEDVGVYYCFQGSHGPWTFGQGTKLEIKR has pEC50 of 9.51
